biological target: Fes (UniProt P07332); assay: phosphorylation enrichment, bacterial display (enrichment ratio); higher = better substrate or ligand; peptides without Tyr show the background;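 further: 11-residue human phosphosite peptides and single-mutation variants displayed on the E. coli surface, counted by deep sequencing, each peptide's frequency after selection divided by its frequency in the unselected input library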;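 further: frequency after pTyr selection over input frequency; kinase dosed for 20-30% of maximal phosphorylation in three min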
Sequence (P07332 whole entry, looked up): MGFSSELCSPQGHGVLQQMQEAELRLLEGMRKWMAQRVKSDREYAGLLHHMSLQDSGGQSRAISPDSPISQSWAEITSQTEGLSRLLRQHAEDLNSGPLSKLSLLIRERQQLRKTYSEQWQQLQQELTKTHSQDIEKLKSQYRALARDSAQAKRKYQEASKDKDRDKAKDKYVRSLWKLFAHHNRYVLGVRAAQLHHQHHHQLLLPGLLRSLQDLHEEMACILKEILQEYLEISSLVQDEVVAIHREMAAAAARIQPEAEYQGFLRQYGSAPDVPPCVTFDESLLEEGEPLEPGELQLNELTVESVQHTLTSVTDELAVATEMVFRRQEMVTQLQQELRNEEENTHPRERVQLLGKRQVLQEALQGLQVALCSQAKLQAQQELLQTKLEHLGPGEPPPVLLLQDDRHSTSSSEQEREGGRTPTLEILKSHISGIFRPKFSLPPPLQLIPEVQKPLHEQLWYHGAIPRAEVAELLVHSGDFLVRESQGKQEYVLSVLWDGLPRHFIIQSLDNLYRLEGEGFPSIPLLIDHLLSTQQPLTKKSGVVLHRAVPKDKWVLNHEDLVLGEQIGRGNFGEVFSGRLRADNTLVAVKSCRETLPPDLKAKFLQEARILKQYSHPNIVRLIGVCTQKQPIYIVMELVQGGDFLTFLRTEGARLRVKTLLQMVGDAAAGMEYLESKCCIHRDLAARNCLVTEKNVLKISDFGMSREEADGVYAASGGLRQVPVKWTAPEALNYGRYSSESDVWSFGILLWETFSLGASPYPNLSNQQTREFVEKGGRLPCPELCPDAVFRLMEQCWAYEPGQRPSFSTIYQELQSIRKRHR
Field: phosphorylation enrichment. Provide a value for each of the sequences that follow.
Give bare numbers.

Could you tell me phosphorylation enrichment for each of these sequences? They are listed below.
1. DPEATYTTSGG [EPHA2_Y772]
2. GHGEEYPVAGA [NOTCH3_Y2221_A2223V]
3. FASTGYVIAIQ [GRIN2B_Y762_G763V]
4. HEEDNYIEMIP [NWD2_Y566_L569M]
5. KPPFSYNALIR [FOXG1_Y186_M191R]
6. RPQDGYRIVQH [PTPRT_Y1329]
7. NFATLHLKIFH [PDE6B_Y219_Y219H_YF]

Reply:
1.19
0.755
0.983
2.85
0.807
0.708
1.44

====

tested on: AncSZ; assay: phosphorylation enrichment, bacterial display (enrichment ratio); higher = better substrate or ligand; peptides without Tyr show the background
Field: phosphorylation enrichment. Provide a value for each of the sequences that follow.
Give bare numbers.

Previously resolved entries follow.
| SEQUENCE | phosphorylation enrichment |
| --- | --- |
| PKEQKYSFLQD [GH1_Y68_N73D] | 0.948 |
| HSGIFYKPESL [L2HGDH_Y103_YF] | 1.34 |
| FRNSLYAPDFS [FAM92A_Y226_YF] | 0.755 |
| THQKSYQPGRK [CEFIP_Y210_N208K] | 0.437 |

Could you tell me phosphorylation enrichment for each of these sequences? They are listed below.
1. MARDIYRASFF [ALK_Y1278_YF]
2. RNVLVYDKLNV [ROR2_Y624]
3. AADGRYEVLFL [SEMA3F_Y478]

Reply:
[0.67, 0.933, 1.07]

Could you tell me phosphorylation enrichment for each of these sequences? They are listed below.
1. KDKLPYPFDDP [GPX2_Y125_YF]
2. GHEYIYVDRMQ [PDGFRB_Y581_P584R]
3. ENRKYYMDLKE [PURA_Y156]

Reply:
1.04
0.891
0.733

====

target: EPHB1 (UniProt P54762); assay: phosphorylation enrichment, bacterial display (enrichment ratio); higher = better substrate or ligand; peptides without Tyr show the background
Sequence (P54762 whole entry, looked up): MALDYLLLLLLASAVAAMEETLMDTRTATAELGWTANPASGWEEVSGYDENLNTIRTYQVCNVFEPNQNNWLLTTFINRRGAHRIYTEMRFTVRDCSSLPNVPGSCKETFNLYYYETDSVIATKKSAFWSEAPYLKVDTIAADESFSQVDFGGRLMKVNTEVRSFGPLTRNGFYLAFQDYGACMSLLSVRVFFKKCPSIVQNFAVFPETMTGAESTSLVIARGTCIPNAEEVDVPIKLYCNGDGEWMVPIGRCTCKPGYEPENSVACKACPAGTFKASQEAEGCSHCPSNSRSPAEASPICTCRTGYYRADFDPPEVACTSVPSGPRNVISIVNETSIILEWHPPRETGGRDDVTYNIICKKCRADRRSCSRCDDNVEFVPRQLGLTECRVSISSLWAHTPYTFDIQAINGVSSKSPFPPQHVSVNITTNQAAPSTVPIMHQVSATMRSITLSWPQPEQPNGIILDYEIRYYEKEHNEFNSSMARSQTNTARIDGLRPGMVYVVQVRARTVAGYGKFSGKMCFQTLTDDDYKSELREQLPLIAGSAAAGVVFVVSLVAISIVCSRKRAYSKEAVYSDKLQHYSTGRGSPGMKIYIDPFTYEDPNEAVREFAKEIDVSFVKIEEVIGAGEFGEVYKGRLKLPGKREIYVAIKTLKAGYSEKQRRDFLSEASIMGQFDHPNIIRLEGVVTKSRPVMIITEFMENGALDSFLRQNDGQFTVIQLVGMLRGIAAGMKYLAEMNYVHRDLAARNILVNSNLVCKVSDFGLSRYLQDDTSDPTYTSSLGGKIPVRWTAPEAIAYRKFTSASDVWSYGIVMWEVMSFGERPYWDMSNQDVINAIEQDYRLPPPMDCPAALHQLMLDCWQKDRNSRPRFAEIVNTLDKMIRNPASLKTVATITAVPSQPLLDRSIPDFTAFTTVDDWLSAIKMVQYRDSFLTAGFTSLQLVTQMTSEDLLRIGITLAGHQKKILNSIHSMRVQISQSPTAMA
READOUT KIND: phosphorylation enrichment
Numbers only.

Previously resolved entries follow.
| SEQUENCE | OBSERVED MEASUREMENT |
| --- | --- |
| RGDVIYKGFED [NFU1_Y194_G189R] | 0.622 |
| PINEPYGDDLD [JUP_Y693_M697L] | 0.799 |
| EFKKHYGFSLF [ANXA3_Y295_YF] | 0.574 |
| IFRAAYFGVFD [SLC25A4_Y191_YF] | 0.751 |
| KLLPEYPGVLS [DHFR2_Y163] | 0.349 |
| HEEDNYIEMIP [NWD2_Y566_L569M] | 1.68 |
| SLEKSYKLPDG [ACTA1_Y242_E243K] | 0.408 |
| KLVQLYDVCTK [BTK_Y461_G462D] | 12.1 |

Could you tell me phosphorylation enrichment for each of these sequences? They are listed below.
1. PLQNTYNYNVL [SLC4A1_Y553_K551N]
2. LNCDRYSVGLL [PDE6A_Y275]
3. AQVDTYCRHNY [HLA-DRB1_Y107_A103Q]
4. DHAGMYGLGDR [MAPT_Y18_T17M]
5. HKNNNYEPNLF [BRCA2_Y57]
6. CTLLPYYSAPV [DGKE_Y269_R273P]
7. YLEKYYKFGCR [NNMT_Y25_S29C]

Reply:
[0.939, 0.961, 0.536, 0.348, 1.95, 2.04, 0.775]

Could you tell me phosphorylation enrichment for each of these sequences? They are listed below.
1. AKIDGYITSYR
2. VKPENYWRLDI [VHL_Y175_R176W]

Reply:
1. 0.52
2. 0.814

Could you tell me phosphorylation enrichment for each of these sequences? They are listed below.
1. FIGVTYKNEED [PDGFRA_Y993_YF]
2. RAILDYIASKY [GSTA3_Y74_N73D]
3. WQLEIYRASRP [ERCC4_Y594_R589W]
4. MANFMYKAGPS [MAML2_Y515_YF]
5. ETCLAYMEKRI [TEKT1_Y118_R119M]
6. LPPGEYVVVPS [CAPN1_Y494]

Reply:
[0.565, 0.456, 0.567, 0.367, 0.591, 5.23]

Could you tell me phosphorylation enrichment for each of these sequences? They are listed below.
1. TEAGDYKLCFD [TMED1_Y103]
2. DRLASYPDKVR [KRT14_Y129_L130P]
3. GGFNNYGFGND [HNRNPH3_Y159_YF]
4. GEPLSHTRFSL [TFRC_Y20_Y20H]
5. RAIDMYLMGCF [GABRB2_Y308_K303R]
6. IGNGYYFRVFS [MYBPC3_Y1136]

Reply:
[0.773, 0.354, 0.733, 0.449, 0.848, 0.729]
